molecular target: G2019S LRRK2 (Homo sapiens, UniProt Q5S007, G2019S); construct: expressed in transfected cells; host or cells: HEK293 (ATCC CRL-1573); assay: LRRK2 degradation HiBit assay, G2019S LRRK2 tagged with a HiBit tag expressed in HEK293 cells; format: cell-based; settings: HEK293 cells, 24 hours compound incubation
Sequence (Q5S007 whole entry G2019S): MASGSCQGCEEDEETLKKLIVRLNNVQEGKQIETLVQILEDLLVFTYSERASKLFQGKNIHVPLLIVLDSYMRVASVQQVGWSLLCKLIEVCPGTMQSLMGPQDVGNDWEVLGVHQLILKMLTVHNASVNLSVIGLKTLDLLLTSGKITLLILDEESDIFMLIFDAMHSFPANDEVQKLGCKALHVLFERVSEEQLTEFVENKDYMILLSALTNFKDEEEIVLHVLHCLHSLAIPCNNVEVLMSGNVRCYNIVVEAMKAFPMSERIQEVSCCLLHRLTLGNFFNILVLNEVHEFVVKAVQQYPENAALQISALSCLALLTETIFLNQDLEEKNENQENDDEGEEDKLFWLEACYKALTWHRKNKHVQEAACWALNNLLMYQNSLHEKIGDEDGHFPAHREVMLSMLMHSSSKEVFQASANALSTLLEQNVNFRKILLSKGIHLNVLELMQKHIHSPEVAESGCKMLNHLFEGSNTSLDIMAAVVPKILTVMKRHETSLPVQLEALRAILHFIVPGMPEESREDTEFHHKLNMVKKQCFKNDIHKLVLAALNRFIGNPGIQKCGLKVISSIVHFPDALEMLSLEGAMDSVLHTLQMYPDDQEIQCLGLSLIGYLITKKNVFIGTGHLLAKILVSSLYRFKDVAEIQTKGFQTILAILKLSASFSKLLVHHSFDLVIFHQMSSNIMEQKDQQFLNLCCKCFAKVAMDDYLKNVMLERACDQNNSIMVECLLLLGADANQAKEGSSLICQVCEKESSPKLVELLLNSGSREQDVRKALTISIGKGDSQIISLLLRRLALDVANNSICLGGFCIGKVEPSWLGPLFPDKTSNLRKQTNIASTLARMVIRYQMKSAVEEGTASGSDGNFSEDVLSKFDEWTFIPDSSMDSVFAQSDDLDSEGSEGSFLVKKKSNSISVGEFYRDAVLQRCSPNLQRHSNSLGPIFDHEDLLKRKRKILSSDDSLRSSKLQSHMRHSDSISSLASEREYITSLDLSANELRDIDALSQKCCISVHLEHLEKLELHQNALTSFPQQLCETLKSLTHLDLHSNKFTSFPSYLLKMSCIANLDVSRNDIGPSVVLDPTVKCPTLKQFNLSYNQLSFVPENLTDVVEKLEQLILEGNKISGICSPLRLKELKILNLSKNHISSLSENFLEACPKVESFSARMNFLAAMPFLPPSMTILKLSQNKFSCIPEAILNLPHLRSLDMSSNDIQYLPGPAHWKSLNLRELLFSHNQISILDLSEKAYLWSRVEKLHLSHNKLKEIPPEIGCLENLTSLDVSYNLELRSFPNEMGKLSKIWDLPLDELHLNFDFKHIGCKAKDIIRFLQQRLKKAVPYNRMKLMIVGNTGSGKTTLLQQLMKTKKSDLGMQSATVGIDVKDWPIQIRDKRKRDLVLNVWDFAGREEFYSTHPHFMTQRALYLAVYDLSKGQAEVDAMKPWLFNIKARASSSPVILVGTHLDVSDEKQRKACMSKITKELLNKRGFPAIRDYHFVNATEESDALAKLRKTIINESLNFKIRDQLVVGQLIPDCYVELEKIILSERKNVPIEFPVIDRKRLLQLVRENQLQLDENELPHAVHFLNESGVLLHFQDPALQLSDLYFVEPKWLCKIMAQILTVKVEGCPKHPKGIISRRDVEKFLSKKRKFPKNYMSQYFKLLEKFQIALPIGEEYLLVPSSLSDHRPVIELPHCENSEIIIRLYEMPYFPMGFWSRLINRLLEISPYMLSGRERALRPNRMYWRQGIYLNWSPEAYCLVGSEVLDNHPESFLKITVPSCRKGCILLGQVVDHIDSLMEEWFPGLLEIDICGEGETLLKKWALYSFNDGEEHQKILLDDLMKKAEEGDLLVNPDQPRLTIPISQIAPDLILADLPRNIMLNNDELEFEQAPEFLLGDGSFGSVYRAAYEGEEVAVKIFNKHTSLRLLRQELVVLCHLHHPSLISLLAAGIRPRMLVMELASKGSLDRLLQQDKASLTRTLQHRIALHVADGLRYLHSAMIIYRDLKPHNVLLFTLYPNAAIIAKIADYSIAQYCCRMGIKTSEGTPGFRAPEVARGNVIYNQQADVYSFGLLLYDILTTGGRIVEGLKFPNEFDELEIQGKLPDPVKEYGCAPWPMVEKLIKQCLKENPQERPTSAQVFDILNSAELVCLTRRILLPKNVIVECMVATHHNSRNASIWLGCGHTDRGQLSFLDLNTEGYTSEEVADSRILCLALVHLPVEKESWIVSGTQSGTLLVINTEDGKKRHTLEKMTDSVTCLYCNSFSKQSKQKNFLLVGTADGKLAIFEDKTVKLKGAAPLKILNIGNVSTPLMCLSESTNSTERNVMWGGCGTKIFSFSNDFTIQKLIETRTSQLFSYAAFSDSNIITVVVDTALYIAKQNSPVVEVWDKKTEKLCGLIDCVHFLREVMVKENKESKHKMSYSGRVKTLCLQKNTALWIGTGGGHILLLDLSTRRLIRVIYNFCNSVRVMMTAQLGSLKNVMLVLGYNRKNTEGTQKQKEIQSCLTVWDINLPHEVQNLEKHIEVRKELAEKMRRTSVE
value-type: DC50

# count of solved cases: 4
{"columns": ["compound", "test-system", "value-type", "observed-value"],
 "data": [
  ["CC1=C(C(=O)Nc2ccc3[nH]nc(-c4ccnc(N5C[C@@H](C)N(CCOCCN6CCN(c7ccc8c(c7)C(=O)N(C7CCC(=O)NC7=O)C8=O)CC6)[C@@H](C)C5)c4)c3c2)Cn2nnnc2N1C (some centres unmarked)", "G2019S LRRK2 (Homo sapiens, UniProt Q5S007, G2019S)", "DC50", "≥ 100 nM"],
  ["CC1=C(C(=O)Nc2ccc3[nH]nc(-c4ccnc(N5CCN(CC6CCN(C7CCN(c8ccc9c(c8)C(=O)N(C8CCC(=O)NC8=O)C9=O)CC7)CC6)CC5)c4)c3c2)[C@@H](C)n2nnnc2N1C (some centres unmarked)", "G2019S LRRK2 (Homo sapiens, UniProt Q5S007, G2019S)", "DC50", "50 to 100 nM"],
  ["CC1=C(C(=O)Nc2ccc3[nH]nc(-c4ccnc(N5C[C@@H](C)N(CC6CCN(CC7CCN(c8ccc9c(c8)C(=O)N(C8CCC(=O)NC8=O)C9=O)CC7)CC6)[C@@H](C)C5)c4)c3c2)C(C)n2nnnc2N1C (some centres unmarked)", "G2019S LRRK2 (Homo sapiens, UniProt Q5S007, G2019S)", "DC50", "< 10 nM"],
  ["CC1=C(C(=O)Nc2ccc3[nH]nc(-c4ccnc(N5CCN(CCN6CCC(CC7CCN(c8ccc9c(c8)C(=O)N(C8CCC(=O)NC8=O)C9=O)CC7)CC6)CC5)c4)c3c2)[C@@H](C)n2nnnc2N1C (some centres unmarked)", "G2019S LRRK2 (Homo sapiens, UniProt Q5S007, G2019S)", "DC50", "10 to 50 nM"]
]}

Okay, now this compound:
Tell me DC50 of CC1=C(C(=O)Nc2ccc3[nH]nc(-c4ccnc(N5CC6(CN(CC7CCN(c8ccc9c(c8)C(=O)N(C8CCC(=O)NC8=O)C9=O)CC7)C6)C5)c4)c3c2)[C@@H](C)n2nnnc2N1C (some centres unmarked) when tested on G2019S LRRK2 (Homo sapiens, UniProt Q5S007, G2019S).
≥ 100 nM

* * *

target: wildtype LRRK2 (Homo sapiens); construct: endogenous in cells; host or cells: HEK293 with HiBit knocked in at the 3' end of the endogenous LRRK2 gene, stably expressing firefly luciferase; test: LRRK2 degradation HiBit assay, wildtype LRRK2 tagged with a HiBit tag in HEK293 cells; assay type: cell-based; settings: 24 hours compound incubation, read-out: *WT DC50
Sequence (Q5S007 whole entry): as the sequence (Q5S007 whole entry G2019S) above, with S2019G counted along it
value-type: DC50

# count of solved cases: 3
{"columns": ["molecule", "test-system", "DC50"],
 "data": [
  ["CC1=C(C(=O)Nc2ccc3[nH]nc(-c4ccnc(N5CCN(CC6CCN(CC7CCN(c8ccc9c(c8)C(=O)N(C8CCC(=O)NC8=O)C9=O)CC7)CC6)[C@@H](C)C5)c4)c3c2)[C@@H](C)n2nnnc2N1C (single isomer, unassigned) [compound 8]", "wildtype LRRK2 (Homo sapiens)", "10 to 50 nM"],
  ["CC1=C(C(=O)Nc2ccc3[nH]nc(-c4ccnc(N5CCN(CCN6CCC(CN7CCN(c8ccc9c(c8)C(=O)N(C8CCC(=O)NC8=O)C9=O)CC7)CC6)[C@@H](C)C5)c4)c3c2)C(C)(C)n2nnnc2N1C (stereo partly shown) [compound 36]", "wildtype LRRK2 (Homo sapiens)", "≥ 100 nM"],
  ["CC1=C(C(=O)Nc2ccc3[nH]nc(-c4ccnc(N5CCN(CC6CCN(CC7CCN(c8ccc9c(c8)C(=O)N(C8CCC(=O)NC8=O)C9=O)CC7)CC6)[C@@H](C)C5)c4)c3c2)Cn2nnnc2N1C (stereo partly shown) [compound 10]", "wildtype LRRK2 (Homo sapiens)", "10 to 50 nM"]
]}

Okay, now this molecule:
Consider the molecule CC1=C(C(=O)Nc2ccc3[nH]nc(-c4ccnc(N5C[C@@H](C)N(CCOCCN6CCN(c7ccc8c(c7)C(=O)N(C7CCC(=O)NC7=O)C8=O)CC6)[C@@H](C)C5)c4)c3c2)Cn2nnnc2N1C (stereo partly shown) [compound 3] . State its measured DC50.
≥ 100 nM
